Source listed as paper PMC3700073.

# test_summary: in vitro
# test_settings: African green monkey
measured_attribute: IC50 at 72 h (µg/mL)
Report as a plain number; the unit µg/mL is understood.

Exercise: # input compound: O=C1C2=C(C(=O)c3ccccc31)C(c1ccc(Cl)cc1)c1sc(=O)[nH]c1S2 (stereo not drawn) [Compound 4g] ; wanted: its IC50 at 72 h
Key: 1.58

Exercise: What do we get for O=C1C2=C(C(=O)c3ccccc31)C(c1ccc(F)cc1)c1sc(=O)[nH]c1S2 (stereo not drawn) [Compound 4h] ?
Key: 1.47

Exercise: What do we get for O=C1C2=C(C(=O)c3ccccc31)C(c1ccccc1O)c1sc(=O)[nH]c1S2 (stereo not drawn) [Compound 4a] ?
Key: 0.44
